details: buffer; pH 7.4; 200.0 µM
quantity kind: solubility kinetic (µg/mL)
Output spec: scalar in µg/mL, unitless text.

Reported solubility kinetic of "COc1nc(N(C)C)nc(N(C)c2cc(Cl)cc(Cl)c2)n1" : 0.4

Reported solubility kinetic of "O=C(N/C(=C\c1ccco1)C(=O)N1CCC(O)CC1)c1ccccc1" : 41.1

Reported solubility kinetic of "O=C(/C=C/c1ccc(F)cc1)NC(=S)Nc1ccccc1" : 1.3

Reported solubility kinetic of "CC(C)[C@H](NC(=O)c1ccccc1F)C(=O)OCC(=O)NC(=O)NC1CCCCC1" : 51.3

Reported solubility kinetic of "COc1ccc(C(=O)c2nc3ccccc3n2C(C)C)cc1OC" : 46.1

Reported solubility kinetic of "O=C(COc1ccccc1Cl)Nc1ccc2c(c1)OCO2" : 1.2

Reported solubility kinetic of Cc1ccc(C2(C)NC(=O)N(CC(=O)N3CCN(S(=O)(=O)c4cccc([N+](=O)[O-])c4)CC3)C2=O)cc1 (configuration not stated) : 12.7

Reported solubility kinetic of COc1cc(C(=O)NCC(c2cccs2)N2CCOCC2)cc(Br)c1OCc1ccccc1 (configuration not stated) : 6.3

Reported solubility kinetic of "COc1ccc(NC(=S)N2CCC(Cc3ccccc3)CC2)cc1" : 4.7

Reported solubility kinetic of "CCn1ccnc1CN(C)Cc1nc(CCC(C)C)no1" : 38.4

Reported solubility kinetic of "CN1C(=O)N(C)c2cccc3cccc1c23" : 0.8

Reported solubility kinetic of "CN(CC(=O)NCc1ccc(F)cc1)Cc1cccc(Cl)c1" : 38.7

Reported solubility kinetic of COc1ccc(CCC(C)NCc2ccc(Cl)c(Cl)c2)cc1 (configuration not stated) : 17.3

Reported solubility kinetic of "O=C(COC(=O)CNC(=O)c1cc(Cl)cc([N+](=O)[O-])c1)NC(=O)NCc1ccco1" : 61.7

Reported solubility kinetic of Cc1ccc(N2C(=O)CC(Sc3cccs3)C2=O)cc1 (configuration not stated) : 35

Reported solubility kinetic of "O=C(CSc1nc(O)c(Cc2ccccc2)c(=O)[nH]1)N1CCOCC1" : 40.2

Reported solubility kinetic of CC(=O)NS(=O)(=O)c1ccc(NC(=O)C(C)NS(=O)(=O)/C=C/c2ccccc2)cc1 (configuration not stated) : 63.3

Reported solubility kinetic of COc1ccc(OC(C)C(=O)N(C)Cc2nc(-c3ccccc3)no2)cc1 (configuration not stated) : 41

Reported solubility kinetic of COc1ccc(-n2c(O)c(C(C)=NCC3CCCO3)c(=O)[nH]c2=O)cc1 (configuration not stated) : 51.5

Reported solubility kinetic of "CSc1sc(C(=O)Nc2ccc(F)cc2F)c2c1C=CCC2" : 2.9

Reported solubility kinetic of "O=C(Cc1ccc(Br)cc1)N1CCCC1" : 37.6

Reported solubility kinetic of "Cc1cc(C)nc(NCc2ccc(Cl)cc2)n1.Cl" : 5.4

Reported solubility kinetic of "NCCCS(=O)(=O)O.O.[Na+]" : 2.9

Reported solubility kinetic of "Cc1ccc2c(COC(=O)c3c(C)noc3C)cc(=O)oc2c1" : 3.1

Reported solubility kinetic of CCCN1C(=O)C(O)(C2COC(C)(C)CC2=O)c2ccccc21 (configuration not stated) : 33.7

Reported solubility kinetic of "O=[N+]([O-])c1cc(S(=O)(=O)NC2=NCCCCC2)ccc1Cl" : 39

Reported solubility kinetic of "COc1ccc2c(c1)CCC/C2=N/OC(=O)c1ccccc1OC" : 2.6
